The compounds listed here are annotated with their CC50 at 72 h.
- procedure-details: Cytotoxicity against human RPTEC assessed as reduction in cell viability incubated for 72 hrs under normoxic condition by SRB assay
- Type: toxicity, cell-based
- condition-details: RPTEC cells
Respond numerically; units are µM and should not be typed.

// below: answered compounds
Problem: So what does the record say about CC50 at 72 h for "C1=CC(c2nc(-c3cccnc3)no2)=CC1" ?
Solution: 66.7

Problem: Request the reported CC50 at 72 h associated with C1=CC(c2nc(-c3cccnc3)no2)CC1 (centres undefined)
Solution: 74.8

Problem: Fill blank: measured CC50 at 72 h of the compound "Cn1ccc(-c2nc(-c3cccnc3)no2)c1" is ____.
Solution: 87.2

Problem: // CC50 at 72 h lookup, key: "c1cncc(-c2noc(-c3ccoc3)n2)c1"
Solution: 54.8

Problem: Query (compound): "C1=C(c2nc(-c3cccnc3)no2)CCC1" ; field requested: CC50 at 72 h
Solution: 68.4

***
Problem: Given the entry "c1cncc(-c2noc(-c3nnon3)n2)c1" , report its measured CC50 at 72 h.
Solution: 61.2

---

- procedure-details: Cytotoxicity against human RPTEC assessed as reduction in cell viability incubated for 72 hrs under normoxic condition by SRB assay
- Assay type: toxicity, cell-based
- condition-details: RPTEC cells
observable: CC50 at 72 h (µM)
Note: unit µM is implicit; provide only the numeric part.

Completed entries (count: 2):
Problem: I am curious: what CC50 at 72 h value has been reported for "c1cncc(-c2noc(-c3nc[nH]n3)n2)c1" ?
Solution: 93.6

Problem: // returns reported CC50 at 72 h for input "c1cncc(-c2noc(-c3ncsn3)n2)c1"
Solution: 45.5

From here, focus on the item given below.
Problem: # CC50 at 72 h lookup, item "c1cncc(-c2noc(-c3ccsc3)n2)c1"
Solution: 63.3
